assay_context: in acetonitrile, 298.15 K
endpoint_label: solubility (mole fraction)
One number for each entry.

Input line: For `Cc1ccc2c(c1)C(=O)OC2=O` , what is its reported solubility (mole fraction)?
Output line: 0.193

----------
assay_context: in n-butyl acetate, 298.15 K
endpoint_label: solubility (mole fraction)
One number for each entry.

Input line: For `Cc1ccc2c(c1)C(=O)OC2=O` , what is its reported solubility (mole fraction)?
Output line: 0.0473

----------
assay_context: in cyclohexane, 283.15 K
endpoint_label: solubility (mole fraction)
Numbers only.

Input line: For `Cc1ccc2c(c1)C(=O)OC2=O` , what is its reported solubility (mole fraction)?
Output line: 0.00152

----------
assay_context: in acetonitrile, 303.15 K
endpoint_label: solubility (mole fraction)
Numbers only.

Input line: For `Cc1ccc2c(c1)C(=O)OC2=O` , what is its reported solubility (mole fraction)?
Output line: 0.224

----------
assay_context: in n-heptane, 313.15 K
endpoint_label: solubility (mole fraction)
Answers are plain numbers.

Input line: For `Cc1ccc2c(c1)C(=O)OC2=O` , what is its reported solubility (mole fraction)?
Output line: 0.00556

----------
assay_context: in toluene, 278.15 K
endpoint_label: solubility (mole fraction)
Numbers only.

Input line: For `Cc1ccc2c(c1)C(=O)OC2=O` , what is its reported solubility (mole fraction)?
Output line: 0.0651

----------
assay_context: in n-heptane, 318.15 K
endpoint_label: solubility (mole fraction)
One number for each entry.

Input line: For `Cc1ccc2c(c1)C(=O)OC2=O` , what is its reported solubility (mole fraction)?
Output line: 0.007

----------
assay_context: in acetone, 303.15 K
endpoint_label: solubility (mole fraction)
Numbers only.

Input line: For `Cc1ccc2c(c1)C(=O)OC2=O` , what is its reported solubility (mole fraction)?
Output line: 0.272

----------
assay_context: in methyl acetate, 313.15 K
endpoint_label: solubility (mole fraction)
One number for each entry.

Input line: For `Cc1ccc2c(c1)C(=O)OC2=O` , what is its reported solubility (mole fraction)?
Output line: 0.41

----------
assay_context: in toluene, 283.15 K
endpoint_label: solubility (mole fraction)
One number for each entry.

Input line: For `Cc1ccc2c(c1)C(=O)OC2=O` , what is its reported solubility (mole fraction)?
Output line: 0.0781

----------
assay_context: in methyl acetate, 283.15 K
endpoint_label: solubility (mole fraction)
One number for each entry.

Input line: For `Cc1ccc2c(c1)C(=O)OC2=O` , what is its reported solubility (mole fraction)?
Output line: 0.206

----------
assay_context: in acetone, 298.15 K
endpoint_label: solubility (mole fraction)
Give bare numbers.

Input line: For `Cc1ccc2c(c1)C(=O)OC2=O` , what is its reported solubility (mole fraction)?
Output line: 0.236

----------
assay_context: in n-heptane, 298.15 K
endpoint_label: solubility (mole fraction)
Answers are plain numbers.

Input line: For `Cc1ccc2c(c1)C(=O)OC2=O` , what is its reported solubility (mole fraction)?
Output line: 0.00284

----------
assay_context: in acetone, 278.15 K
endpoint_label: solubility (mole fraction)

Input line: For `Cc1ccc2c(c1)C(=O)OC2=O` , what is its reported solubility (mole fraction)?
Output line: 0.127

----------
assay_context: in toluene, 303.15 K
endpoint_label: solubility (mole fraction)
Numbers only.

Input line: For `Cc1ccc2c(c1)C(=O)OC2=O` , what is its reported solubility (mole fraction)?
Output line: 0.158
